Ref: patent US20230203156A1

target: human MDR1 (multidrug resistance protein 1) (human, UniProt P08183 1-1280); experiment: cell-based or functional assay
Rule: measured IC50 of vincristine on N6/ADR cells with antibody below 0.01 nM gets true; anything equal to or greater than 0.01 nM gets false.

## Task Criterion: IC50 of vincristine on N6/ADR cells with antibody strictly below 0.01 nM. Is it met by B1.129 (antibody, human IgG1, V domains shown, expressed with human IgG1 heavy and human kappa light constant regions; also called KNJY B1-129; KB1.129) VH: EVQLQQSGPELVKPGASVKMSCKASGYTFSTYVIHWVKQKPGQGLEWIGYIYPYNDYTKYNEKFKDKATLTSDKSSSTAYMEIRSLTSEDSAVYYCSRAYYGNLVGYGVDYWGQGTSVTVSS VL: QIVLTQSPAILPASPGEKVTMTCRASSSVSFIYWYQQRPGSSPKPWIFATSNLASGVPARFSGSGSGTSYSLTISRVEAEDAATYYCHQWGSNLPTFGGGTKLEIK ?
## Result false

## Task Does the reported IC50 of vincristine on N6/ADR cells with antibody of B1.217 (antibody, human IgG1, V domains shown) VH: EVQLVESGGALVKPGGSLKLSCAASGFTFSNYAMSWVRQTPEKRLEWVATISSGGSYTYYPDSVKGRFTISRDNAKNTLYLQMSSLRSEDTALYYCTKYSNYGRFAYWGQGTLVTVST VL: DVLMTQTPLSLPVSLGDQASISCRSSQSIVHSTGNTYLEWYLQKPGQSPKLLIYKVSNRFSGVPDRFSGSGSGTDFTLKISRVEAEDLGVYYCFQGSHIPYTFGGGTKLEIK stay below 0.01 nM?
## Result false

## Task Please let me know if B1.30 (antibody, human IgG1, V domains shown) VH: EVMLVESGGGLVKPGGSLKLSCAASGFTFSSYTMSWVRQTPEKRLEWVATISSGGGNTYYPDSVKGRFTISRDNAKNNLYLQMSSLRSEDTALYYCARYYRYDAWFAYWGQGTLVTVSA VL: DVLMTQTPLSLPVSLGDQASISCRSSQSIVHSTGNTYLEWYLQKPGQSPKLLIYKVSNRFSGVPDRFSGSGSGTDFTLKISRVETEDLGVYYCFQGSHVPRTFGGGTKLEIK shows IC50 of vincristine on N6/ADR cells with antibody below 0.01 nM.
## Result false

## Task Determine whether this binder shows IC50 of vincristine on N6/ADR cells with antibody lower than 0.01 nM (ties excluded): B1.39 (antibody, human IgG1, V domains shown) VH: EVMLVESGGGLVKPGGSLKLSCAASGFTFSSYTMSWVRQTPEKRLEWVATVSSGGGNTYYPDSVKGRFTISRDNAKNNLYLQMSSLRSEDTALYYCARYGNYGWFTYWGQGTLVTVSA VL: DVLMTQTPLSLPVSLGDQASISCRSSQSILHSNGNTYLEWYLQKPGQSPKLLIYKVSNRFSGVPDRFSASGSGTDFTLKISRVEAEDLGIYYCFQGSHVPRTFGGGTKLEIK
## Result false

## Task Strictly below 0.01 nM: is that where IC50 of vincristine on N6/ADR cells with antibody of B1.226 (antibody, human IgG1, V domains shown) VH: EVQLVESGGALVKPGGSLKLSCAASGFTFSNYAMSWVRQTPETRLEWVATISSGGSYTYYPDSVKGRFTISRDNAKNTLYLQMSSLRSEDTALYYCARYSNLAWFAYWGQGTLVTVSA VL: DVVMTQTPLSLPVSLGDQASISCRSSQSIVHSNGNTYLDWYLQKPGQSPKFMIYKVSNRFSGVPDRFSGSGSGTDFTLKISRVEAEDLGVYYCFQGSHVPYTFGGGTKLEIK sits?
## Result false

## Task Please indicate whether the reported IC50 of vincristine on N6/ADR cells with antibody of KPA08 (antibody, V domains shown) VH: EVKVVESGGVLVRPGGSLKLSCAASGFTFSRYTMSWVRQTPEKRLEWVATISSGGGNTYYPDSVKGRFTVSRDNAMSSLYLQMSSLRSEDTALYYCARYGAGDAWFAYWGQGTLVTVSS VL: DVLMTQTPVSLSVSLGDQASISCRSSQSIVHSTGNTYLEWYLQKPGQSPKLLIYKISNRFSGVPDRFSGSGSGTDFTLKISRVEAEDLGVYYCFQASHFPRTFGGGTKLEIK is strictly below 0.01 nM.
## Result false

## Task Please check: IC50 of vincristine on N6/ADR cells with antibody for B1.263 (antibody, human IgG1, V domains shown) VH: EVKLVESGGGLVKPGGSLKLSCAASGFTFSNYGMSWVRQTPEKRLEWVAAISSNGAYTYFPDTVKGRFTISRDNAKNTLYLQMNSLRSEDTALYYCTRRGWDTWFAYWGQGTLVTVSS VL: DVVMTQTPLSLPVSLGDQASISCRSSQNIVHSTGNTYLEWYLQKPGQSPKLLIYKVSNRFSGVPDRFSGSGSGTDFTLKISRVEAEDLGVYYCFQGSHVPWTFGGGTKLEIK , strictly under 0.01 nM or not?
## Result true

## Task Is IC50 of vincristine on N6/ADR cells with antibody of B1.261 (antibody, human IgG1, V domains shown, expressed with human IgG1 heavy and human kappa light constant regions; also called KNJY B1-261; KB1.261) VH: QVQLKESGPGLVAPSQSLSITCTVSGFSLTSYGVHWVRQPPGKGLEWLVVIWSDGSTTYNSALKSRLSISKDNSKSQVFLKMNSLQIDDTAMYYCARHGRWLLQRGGAMDYWGQGTSVTVSS VL: DVVMTQAPKFMSTSVGDRVSVTCRASQNVGSYIAWYQQKLGQSPKALIYSASYRCSGVPDRFTGSGAGTDFTLTIRNVQSEDLAEYFCQQYNSYPLTFGGGTKLEIK strictly below 0.01 nM?
## Result true

## Task Hello, I'm reviewing records and need to know if IC50 of vincristine on N6/ADR cells with antibody of B1.27 (antibody, human IgG1, V domains shown) VH: EVKLVESGGGLVKPGGSLKLSCAASGFTFSSYTMSWVRQTPEKRLEWVATVSSGGGNTYYPDSVKGRFTISRDNAKNNLYLQMSSPRSEDTALYYCARYGNYGWFTYWGQGTLVTVSS VL: DVVMTQTPLSLPVSLGDQASISCRSSQNIVHSTGNTYLDWYLQKPGQSPKLLIYKVSNRFSGVPDRFSGSGSGTDFTLKISRVEAEDLGVYFCFQGSHIPRTFGGGTKLEIK is below 0.01 nM. Could you check?
## Result false
